Each recorded value in this set is attributed to patent US20210054097A1.

Measured ELISA signal relative to background, listed per entry for reference.
molecular target: T1, FX activation peptide 12-mer PDSITWKPYDAA (human); test: peptide ELISA
T1 peptide: PDSITWKPYDAA-biotin
Ends that are not written are not given here.
Field format: numeric only.

A selection of reference data follows.
1. Nb 729C08 (VHH, monovalent Nanobody; also called Nb 729008; not shown: C-terminal FLAG3 and HIS6 tag) VHH: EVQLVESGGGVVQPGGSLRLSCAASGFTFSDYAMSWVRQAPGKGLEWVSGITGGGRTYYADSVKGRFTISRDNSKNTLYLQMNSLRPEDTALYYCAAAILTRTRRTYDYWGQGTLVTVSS; 1.17
2. Nb 501A02 (VHH, monovalent control Nanobody; also called control Nanobody; not shown: C-terminal FLAG3 and HIS6 tag) VHH: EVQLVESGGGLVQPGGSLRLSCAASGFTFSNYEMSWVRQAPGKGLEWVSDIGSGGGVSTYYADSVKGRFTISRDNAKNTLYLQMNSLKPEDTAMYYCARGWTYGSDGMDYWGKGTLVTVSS; 0.79
3. Nb 701D07 (VHH, monovalent Nanobody; not shown: C-terminal FLAG3 and HIS6 tag) VHH: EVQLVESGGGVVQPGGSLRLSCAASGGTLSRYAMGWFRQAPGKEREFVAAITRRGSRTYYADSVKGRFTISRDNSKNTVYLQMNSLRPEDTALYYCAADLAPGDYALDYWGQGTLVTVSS; 0.84
4. Nb 702C12 (VHH, monovalent Nanobody; not shown: C-terminal FLAG3 and HIS6 tag) VHH: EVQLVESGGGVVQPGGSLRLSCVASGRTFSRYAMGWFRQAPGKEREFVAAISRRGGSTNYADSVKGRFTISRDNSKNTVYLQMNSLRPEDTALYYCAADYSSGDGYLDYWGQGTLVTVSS; 1.05
5. Nb 729A04 (VHH, monovalent Nanobody; not shown: C-terminal FLAG3 and HIS6 tag) VHH: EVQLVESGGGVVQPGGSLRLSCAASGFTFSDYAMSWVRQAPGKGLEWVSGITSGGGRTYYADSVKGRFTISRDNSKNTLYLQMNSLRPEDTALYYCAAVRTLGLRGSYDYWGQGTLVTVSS; 0.95

Supply recorded ELISA signal relative to background for Nb 701C06 (VHH, monovalent Nanobody; not shown: C-terminal FLAG3 and HIS6 tag) VHH: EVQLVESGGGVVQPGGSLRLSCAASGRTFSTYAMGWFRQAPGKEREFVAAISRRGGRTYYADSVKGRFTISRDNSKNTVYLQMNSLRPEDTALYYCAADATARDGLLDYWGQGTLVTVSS here.
0.92
